# ASSAY NAME: gradient 5% acetonitrile 3 min, to 50% in 2 min, to 85% in 15 min, held 3 min, 100 µL/min
# CONDITION DESCRIPTION: column: Zorbax Extend-C18 2.1 x 50 mm; eluents: water / acetonitrile, 0.1% formic acid
MEASUREMENT LABEL: RP-LC retention time (s)

Some solved cases for reference:
CC(C)S(=O)(=O)c1cc2c(cc1NC(=O)c1ccc(Br)cc1)n(C)c(=O)n2C : 951
O=C(NC1CCCC1)c1ccc2ccnc(N3CCN(c4ccc(Cl)cc4)CC3)c2c1 : 890
COc1cccc(-n2c(=O)c(C(=O)Nc3ccccc3Cl)c(O)c3cccnc32)c1 : 1290

[A] Cc1cc(C)c(S(=O)(=O)N2CCC(n3cnc4c(C)cccc4c3=O)CC2)c(C)c1
[B] C=CCn1c(C)c(CC(=O)NC(C)C)c(=O)n2nc(-c3ccccc3)nc12
Data request: // compare: A vs B , metric RP-LC retention time, want the smaller Refer to your chosen item by its label in the answer.
Data returned: B
